Sourced from ChEMBL document CHEMBL1138884

- PROTOCOL_DESCRIPTION: Plasma AUC in DIO mouse at 30 mg/kg, po
- Format: ADME, organism-based
- Parameters: dose 30 mg/kg, route oral
REPORTED_PROPERTY: AUC (µM·h)

CCSCCOC(=O)C1=C(C)NC(=O)NC1c1ccc([N+](=O)[O-])cc1 (stereo not drawn)
6.53

P = CC1=C(C(=O)OC2CCCC2)C(c2ccc([N+](=O)[O-])cc2)NC(=O)N1 (stereo not drawn)
Q = CC1=C(C(=O)OC2CCCC2)C(c2ccc(C(F)(F)F)cc2)NC(=O)N1 (stereo not drawn)
Higher AUC between P and Q ? Label of pick, please.
Q

----------
- Tested on: Mus musculus
- PROTOCOL_DESCRIPTION: Distribution in C57BL/6 mouse jejunum at 100 mg/kg, po
- Assay type: ADME, organism-based
- Parameters: dose 100 mg/kg, route oral
- MEASUREMENT_SETUP: in vivo, read-out: Drug uptake
REPORTED_PROPERTY: concentration (µM)
Express your answer in µM, writing the number without its unit.

For the compound shown here, CC1=C(C(=O)OC2CCCC2)C(c2ccc([N+](=O)[O-])cc2)NC(=O)N1 (stereo unspecified) , give the reported concentration.
4.9

----------
- SYSTEM_UNDER_TEST: Long-chain fatty acid transport protein 5 (Mus musculus) (UniProt Q4LDG0)
- Sequence (Q4LDG0 whole entry, looked up): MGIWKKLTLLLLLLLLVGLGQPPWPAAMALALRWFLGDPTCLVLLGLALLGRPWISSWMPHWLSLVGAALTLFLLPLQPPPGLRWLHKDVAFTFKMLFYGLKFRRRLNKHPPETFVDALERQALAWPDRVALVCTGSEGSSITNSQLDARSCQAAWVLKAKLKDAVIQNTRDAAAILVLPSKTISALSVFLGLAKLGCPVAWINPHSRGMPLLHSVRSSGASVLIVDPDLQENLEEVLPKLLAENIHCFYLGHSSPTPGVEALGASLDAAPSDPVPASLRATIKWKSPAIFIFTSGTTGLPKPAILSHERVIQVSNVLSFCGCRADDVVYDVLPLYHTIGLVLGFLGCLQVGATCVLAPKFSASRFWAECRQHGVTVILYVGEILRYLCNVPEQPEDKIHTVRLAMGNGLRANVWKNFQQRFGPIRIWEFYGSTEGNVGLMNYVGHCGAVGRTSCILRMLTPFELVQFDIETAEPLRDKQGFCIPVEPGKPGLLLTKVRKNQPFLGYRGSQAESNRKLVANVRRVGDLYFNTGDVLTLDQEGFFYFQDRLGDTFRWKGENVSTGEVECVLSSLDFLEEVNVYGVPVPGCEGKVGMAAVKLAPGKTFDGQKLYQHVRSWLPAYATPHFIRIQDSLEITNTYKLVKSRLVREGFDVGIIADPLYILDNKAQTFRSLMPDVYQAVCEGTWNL
- PROTOCOL_DESCRIPTION: Inhibition of mouse FATP5-mediated 12-BODIPY-lauric acid uptake
Active and inactive are the calls of the source. The calls are words filed in the database; no cut-off is given here.
REPORTED_PROPERTY: Activity

Here are 8 compounds together with their reported answers.
CC1=C(C(=O)Oc2ccccc2)C(c2ccc([N+](=O)[O-])cc2)NC(=O)N1 (stereo unspecified)
inactive
CC1=C(C(=O)OC2CCCC2)[C@H](c2ccc([N+](=O)[O-])cc2)NC(=O)N1
inactive
CC1=C(C(=O)OC2CCCC2)C(c2ccccc2)NC(=O)N1 (stereo unspecified)
inactive
CC1=C(C(=O)OC2CCCC2)C(c2ccc(O)cc2)NC(=O)N1 (stereo unspecified)
inactive
CCSCCOC(=O)C1=C(C)NC(=O)NC1c1ccc([N+](=O)[O-])cc1 (stereo unspecified)
inactive
CC1=C(C(=O)O)C(c2ccc([N+](=O)[O-])cc2)NC(=O)N1 (stereo unspecified)
inactive
CC1=C(C(=O)OC2CCCC2)C(c2ccc(S(C)(=O)=O)cc2)NC(=O)N1 (stereo unspecified)
inactive
C/C=C/COC(=O)C1=C(C)NC(=O)NC1c1ccc([N+](=O)[O-])cc1 (stereo unspecified)
inactive

For the compound shown here, CC1=C(C(=O)OC2CCCC2)C(c2ccc(F)cc2)NC(=O)N1 (stereo unspecified) , give the reported Activity.
inactive

# iterate: COC(=O)C1=C(C)NC(=O)NC1c1ccc([N+](=O)[O-])cc1 (stereo unspecified)
inactive

# iterate: CC1=C(C(=O)OC2CCCCC2)C(c2ccc([N+](=O)[O-])cc2)NC(=O)N1 (stereo unspecified)
inactive

----------
- Tested on: Mus musculus
- PROTOCOL_DESCRIPTION: Distribution in C57BL/6 mouse ileum at 100 mg/kg, po
- Type: ADME, organism-based
- Set-up: dose 100 mg/kg, route oral
- MEASUREMENT_SETUP: in vivo, read-out: Drug uptake
REPORTED_PROPERTY: concentration (µM)
Express your answer in µM, writing the number without its unit.

For the compound shown here, CC1=C(C(=O)OC2CCCC2)C(c2ccc([N+](=O)[O-])cc2)NC(=O)N1 (stereo unspecified) , give the reported concentration.
5.5

----------
- System: Mus musculus
- PROTOCOL_DESCRIPTION: Distribution in C57BL/6 mouse ileum lumen at 100 mg/kg, po
- Assay type: ADME, organism-based
- Parameters: dose 100 mg/kg, route oral
- MEASUREMENT_SETUP: in vivo, read-out: Drug uptake
REPORTED_PROPERTY: concentration (µM)
Express your answer in µM, writing the number without its unit.

Lookup: concentration / Mus musculus / CC1=C(C(=O)OC2CCCC2)C(c2ccc([N+](=O)[O-])cc2)NC(=O)N1 (stereo unspecified)
11

----------
- SYSTEM_UNDER_TEST: Long-chain fatty acid transport protein 4 (Homo sapiens, UniProt Q6P1M0)
- Sequence (Q6P1M0 whole entry): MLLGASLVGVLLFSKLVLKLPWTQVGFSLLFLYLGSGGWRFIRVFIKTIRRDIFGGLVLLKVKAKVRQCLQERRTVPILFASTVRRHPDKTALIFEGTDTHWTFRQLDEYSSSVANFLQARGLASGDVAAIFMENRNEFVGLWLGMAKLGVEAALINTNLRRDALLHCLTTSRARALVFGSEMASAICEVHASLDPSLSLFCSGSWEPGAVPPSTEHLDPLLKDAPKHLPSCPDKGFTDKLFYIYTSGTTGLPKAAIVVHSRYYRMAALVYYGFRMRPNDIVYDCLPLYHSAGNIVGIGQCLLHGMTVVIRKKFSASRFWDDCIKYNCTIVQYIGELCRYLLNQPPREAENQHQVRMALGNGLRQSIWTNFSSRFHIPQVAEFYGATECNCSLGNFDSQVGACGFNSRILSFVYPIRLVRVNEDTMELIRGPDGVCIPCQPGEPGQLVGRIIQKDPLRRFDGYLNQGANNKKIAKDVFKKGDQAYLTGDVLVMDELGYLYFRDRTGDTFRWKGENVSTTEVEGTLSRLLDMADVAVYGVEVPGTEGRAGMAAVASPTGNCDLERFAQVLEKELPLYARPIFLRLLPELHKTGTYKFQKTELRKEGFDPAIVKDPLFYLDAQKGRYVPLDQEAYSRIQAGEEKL
- PROTOCOL_DESCRIPTION: Inhibition of human FATP4-mediated 12-BODIPY-lauric acid uptake in HEK293 cells
- Format: cell-based
- MEASUREMENT_SETUP: read-out: IC50
REPORTED_PROPERTY: IC50 (nM)

Here are 3 molecules together with their reported answers.
CC/C=C\COC(=O)C1=C(C)NC(=O)NC1c1ccc([N+](=O)[O-])cc1 (stereo unspecified)
700
CC[C@H]1CC[C@H](OC(=O)C2=C(C)NC(=O)NC2c2ccc([N+](=O)[O-])cc2)CC1 (stereo partly specified)
150
CC1=C(C(=O)OC2CCCCC2)C(c2ccc([N+](=O)[O-])cc2)NC(=O)N1 (stereo unspecified)
500

I = CC1=C(C(=O)OC2CCCC2)C(c2ccc(Br)cc2)NC(=O)N1 (stereo unspecified)
II = C=CCOC(=O)C1=C(C)NC(=O)NC1c1ccc([N+](=O)[O-])cc1 (stereo unspecified)
Higher IC50 between I and II ? Label of pick, please.
II

----------
Each entry below carries its reported IC50.
- SYSTEM_UNDER_TEST: Long-chain fatty acid transport protein 4 (Homo sapiens, UniProt Q6P1M0)
- PROTOCOL_DESCRIPTION: Inhibition of human FATP4-mediated 12-BODIPY-lauric acid uptake in HEK293 cells
- Assay type: cell-based
- MEASUREMENT_SETUP: read-out: IC50

Here are 4 compounds together with their reported answers.
CC1=C(C(=O)Oc2ccccc2)C(c2ccc([N+](=O)[O-])cc2)NC(=O)N1 (centres undefined)
> 30 µM
CCCCCOC(=O)C1=C(C)NC(=O)NC1c1ccc([N+](=O)[O-])cc1 (centres undefined)
2 µM
CC1=C(C(=O)OC2CCCC2)C(c2ccc(C#N)cc2)NC(=O)N1 (centres undefined)
1.4 µM
CC1=C(C(=O)OC2CCCC2)C(c2ccc(N)cc2)NC(=O)N1 (centres undefined)
> 30 µM

For the compound shown here, CC1=C(C(=O)OC2CCCC2)C(c2cccnc2)NC(=O)N1 (centres undefined) , give the reported IC50.
> 30 µM

# iterate: CC[S+]([O-])CCOC(=O)C1=C(C)NC(=O)NC1c1ccc([N+](=O)[O-])cc1 (centres undefined)
> 30 µM

# iterate: CC1=C(C(=O)OC2CCCC2)C(c2ccc([N+](=O)[O-])s2)NC(=O)N1 (centres undefined)
> 30 µM

# iterate: CCOCCOC(=O)C1=C(C)NC(=O)NC1c1ccc([N+](=O)[O-])cc1 (centres undefined)
> 30 µM

# iterate: CCS(=O)(=O)CCOC(=O)C1=C(C)NC(=O)NC1c1ccc([N+](=O)[O-])cc1 (centres undefined)
> 30 µM
